Value source: patent US8569344B2

# IC50 values compiled below
biological target: human α1H T-type channels (Homo sapiens, UniProt O95180); construct: expressed in transfected cells; host or cells: HEK 293; experiment: T-type calcium channel block, whole cell patch clamp in HEK cells (α1H); type: cell-based; settings: HEK cells, patch clamp, mainly non-inactivated protocol; values above 10 μM shown as 10 μM; read-out: T-type Calcium Channel Block α1H IC50
Sequence (O95180 whole entry): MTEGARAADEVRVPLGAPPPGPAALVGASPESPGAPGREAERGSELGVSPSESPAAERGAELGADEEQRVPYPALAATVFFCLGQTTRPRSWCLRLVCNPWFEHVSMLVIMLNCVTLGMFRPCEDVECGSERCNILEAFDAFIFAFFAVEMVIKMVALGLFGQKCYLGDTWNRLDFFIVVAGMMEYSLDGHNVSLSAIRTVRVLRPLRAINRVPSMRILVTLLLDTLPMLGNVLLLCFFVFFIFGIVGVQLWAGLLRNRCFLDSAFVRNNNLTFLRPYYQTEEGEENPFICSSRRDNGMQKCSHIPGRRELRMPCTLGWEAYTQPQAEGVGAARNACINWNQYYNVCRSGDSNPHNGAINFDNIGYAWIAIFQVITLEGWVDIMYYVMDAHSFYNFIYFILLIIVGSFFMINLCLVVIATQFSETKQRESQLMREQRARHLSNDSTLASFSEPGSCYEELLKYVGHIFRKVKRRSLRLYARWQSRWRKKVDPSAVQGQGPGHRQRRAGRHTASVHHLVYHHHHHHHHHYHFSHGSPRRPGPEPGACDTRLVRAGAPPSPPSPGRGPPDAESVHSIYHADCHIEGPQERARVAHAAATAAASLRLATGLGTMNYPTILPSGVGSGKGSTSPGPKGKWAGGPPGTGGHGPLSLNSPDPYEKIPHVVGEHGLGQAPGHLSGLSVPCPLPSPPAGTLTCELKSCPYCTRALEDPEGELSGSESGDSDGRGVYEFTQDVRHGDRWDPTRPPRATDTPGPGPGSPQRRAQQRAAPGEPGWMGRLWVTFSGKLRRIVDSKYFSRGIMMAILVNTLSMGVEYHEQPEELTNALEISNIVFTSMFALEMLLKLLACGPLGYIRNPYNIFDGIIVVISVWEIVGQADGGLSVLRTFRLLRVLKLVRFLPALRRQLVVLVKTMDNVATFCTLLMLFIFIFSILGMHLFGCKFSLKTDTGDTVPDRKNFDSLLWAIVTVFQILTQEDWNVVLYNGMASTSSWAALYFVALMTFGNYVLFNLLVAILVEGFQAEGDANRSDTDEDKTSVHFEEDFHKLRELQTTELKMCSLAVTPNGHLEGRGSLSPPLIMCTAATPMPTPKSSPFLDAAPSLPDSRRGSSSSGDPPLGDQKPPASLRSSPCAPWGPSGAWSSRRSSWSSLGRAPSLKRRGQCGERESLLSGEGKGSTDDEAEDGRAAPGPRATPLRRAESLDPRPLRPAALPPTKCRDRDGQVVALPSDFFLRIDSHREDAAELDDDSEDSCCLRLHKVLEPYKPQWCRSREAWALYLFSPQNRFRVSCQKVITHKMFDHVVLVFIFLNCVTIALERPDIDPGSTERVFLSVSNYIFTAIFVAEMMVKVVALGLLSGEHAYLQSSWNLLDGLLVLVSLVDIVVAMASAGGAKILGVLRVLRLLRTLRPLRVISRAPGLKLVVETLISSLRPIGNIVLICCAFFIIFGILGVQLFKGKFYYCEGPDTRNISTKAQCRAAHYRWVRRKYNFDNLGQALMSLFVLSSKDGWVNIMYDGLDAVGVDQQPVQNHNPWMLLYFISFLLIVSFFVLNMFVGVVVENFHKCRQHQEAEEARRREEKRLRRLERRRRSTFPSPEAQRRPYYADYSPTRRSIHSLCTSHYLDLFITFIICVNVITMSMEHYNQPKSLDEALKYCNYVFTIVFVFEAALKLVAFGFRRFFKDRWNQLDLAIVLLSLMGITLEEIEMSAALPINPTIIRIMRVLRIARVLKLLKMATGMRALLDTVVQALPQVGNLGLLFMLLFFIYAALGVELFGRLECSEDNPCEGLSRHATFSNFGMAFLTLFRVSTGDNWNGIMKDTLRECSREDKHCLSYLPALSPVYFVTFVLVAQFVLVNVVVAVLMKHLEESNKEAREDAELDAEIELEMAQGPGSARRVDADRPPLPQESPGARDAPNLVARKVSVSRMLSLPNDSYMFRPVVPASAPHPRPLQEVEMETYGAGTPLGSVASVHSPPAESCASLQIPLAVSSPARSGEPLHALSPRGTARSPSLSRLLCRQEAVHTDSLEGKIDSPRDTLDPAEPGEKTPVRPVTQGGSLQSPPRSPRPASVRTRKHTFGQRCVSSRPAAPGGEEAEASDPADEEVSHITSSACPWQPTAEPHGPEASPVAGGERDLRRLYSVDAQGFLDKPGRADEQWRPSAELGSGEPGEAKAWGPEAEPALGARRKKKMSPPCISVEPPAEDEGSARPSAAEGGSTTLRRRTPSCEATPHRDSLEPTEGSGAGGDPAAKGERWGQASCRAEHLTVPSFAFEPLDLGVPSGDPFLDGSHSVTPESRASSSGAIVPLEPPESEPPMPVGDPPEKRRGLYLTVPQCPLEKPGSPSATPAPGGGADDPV
Reply numerically in nM, unit not repeated.

Some solved entries appear below for comparison.
{"columns": ["Compound", "Unit Tag", "IC50"],
 "data": [
  ["CC(C)(C(=O)NCCN1CCC(CNC(=O)c2cc(F)cc(Cl)c2)CC1)C(F)(F)F", "nM", 90],
  ["COCC(C)(C)NC(=O)C(C)N1CCC(CNC(=O)c2cc(F)cc(Cl)c2)CC1 (stereo not shown)", "nM", 140],
  ["CC(C)(O)C(=O)NCCN1CCC(CNC(=O)c2cc(C(F)(F)F)cc(C(F)(F)F)c2)CC1", "nM", 6370],
  ["CC(C)(CN1CCC(CNC(=O)c2cc(F)cc(C(F)(F)F)c2)CC1)NS(=O)(=O)C(F)(F)F", "nM", 1320],
  ["CC1(NC(=O)CN2CCC(CNC(=O)c3cccc(Cl)c3)CC2)CCC1", "nM", 250],
  ["CC(C)(C(=O)NCCN1CCC(CNC(=O)c2cccc(OC(F)(F)F)c2)CC1)C(F)(F)F", "nM", 90]
]}

Kindly consider the entry below.
Measured IC50 of "CC(C)(C)NC(=O)CN1CCC(CNC(=O)c2cc(Br)cc(Br)c2)CC1" : 90

====

target: human α1G T-type channels (Homo sapiens); construct: expressed in transfected cells; host or cells: HEK 293; test: T-type calcium channel block, whole cell patch clamp in HEK cells (α1G); format: cell-based; conditions: HEK cells, patch clamp, mainly non-inactivated protocol; values above 10 μM shown as 10 μM, below 0.30 μM shown as 0.30 μM; read-out: T-type Calcium Channel Block α1G IC50
Sequence (O43497 whole entry): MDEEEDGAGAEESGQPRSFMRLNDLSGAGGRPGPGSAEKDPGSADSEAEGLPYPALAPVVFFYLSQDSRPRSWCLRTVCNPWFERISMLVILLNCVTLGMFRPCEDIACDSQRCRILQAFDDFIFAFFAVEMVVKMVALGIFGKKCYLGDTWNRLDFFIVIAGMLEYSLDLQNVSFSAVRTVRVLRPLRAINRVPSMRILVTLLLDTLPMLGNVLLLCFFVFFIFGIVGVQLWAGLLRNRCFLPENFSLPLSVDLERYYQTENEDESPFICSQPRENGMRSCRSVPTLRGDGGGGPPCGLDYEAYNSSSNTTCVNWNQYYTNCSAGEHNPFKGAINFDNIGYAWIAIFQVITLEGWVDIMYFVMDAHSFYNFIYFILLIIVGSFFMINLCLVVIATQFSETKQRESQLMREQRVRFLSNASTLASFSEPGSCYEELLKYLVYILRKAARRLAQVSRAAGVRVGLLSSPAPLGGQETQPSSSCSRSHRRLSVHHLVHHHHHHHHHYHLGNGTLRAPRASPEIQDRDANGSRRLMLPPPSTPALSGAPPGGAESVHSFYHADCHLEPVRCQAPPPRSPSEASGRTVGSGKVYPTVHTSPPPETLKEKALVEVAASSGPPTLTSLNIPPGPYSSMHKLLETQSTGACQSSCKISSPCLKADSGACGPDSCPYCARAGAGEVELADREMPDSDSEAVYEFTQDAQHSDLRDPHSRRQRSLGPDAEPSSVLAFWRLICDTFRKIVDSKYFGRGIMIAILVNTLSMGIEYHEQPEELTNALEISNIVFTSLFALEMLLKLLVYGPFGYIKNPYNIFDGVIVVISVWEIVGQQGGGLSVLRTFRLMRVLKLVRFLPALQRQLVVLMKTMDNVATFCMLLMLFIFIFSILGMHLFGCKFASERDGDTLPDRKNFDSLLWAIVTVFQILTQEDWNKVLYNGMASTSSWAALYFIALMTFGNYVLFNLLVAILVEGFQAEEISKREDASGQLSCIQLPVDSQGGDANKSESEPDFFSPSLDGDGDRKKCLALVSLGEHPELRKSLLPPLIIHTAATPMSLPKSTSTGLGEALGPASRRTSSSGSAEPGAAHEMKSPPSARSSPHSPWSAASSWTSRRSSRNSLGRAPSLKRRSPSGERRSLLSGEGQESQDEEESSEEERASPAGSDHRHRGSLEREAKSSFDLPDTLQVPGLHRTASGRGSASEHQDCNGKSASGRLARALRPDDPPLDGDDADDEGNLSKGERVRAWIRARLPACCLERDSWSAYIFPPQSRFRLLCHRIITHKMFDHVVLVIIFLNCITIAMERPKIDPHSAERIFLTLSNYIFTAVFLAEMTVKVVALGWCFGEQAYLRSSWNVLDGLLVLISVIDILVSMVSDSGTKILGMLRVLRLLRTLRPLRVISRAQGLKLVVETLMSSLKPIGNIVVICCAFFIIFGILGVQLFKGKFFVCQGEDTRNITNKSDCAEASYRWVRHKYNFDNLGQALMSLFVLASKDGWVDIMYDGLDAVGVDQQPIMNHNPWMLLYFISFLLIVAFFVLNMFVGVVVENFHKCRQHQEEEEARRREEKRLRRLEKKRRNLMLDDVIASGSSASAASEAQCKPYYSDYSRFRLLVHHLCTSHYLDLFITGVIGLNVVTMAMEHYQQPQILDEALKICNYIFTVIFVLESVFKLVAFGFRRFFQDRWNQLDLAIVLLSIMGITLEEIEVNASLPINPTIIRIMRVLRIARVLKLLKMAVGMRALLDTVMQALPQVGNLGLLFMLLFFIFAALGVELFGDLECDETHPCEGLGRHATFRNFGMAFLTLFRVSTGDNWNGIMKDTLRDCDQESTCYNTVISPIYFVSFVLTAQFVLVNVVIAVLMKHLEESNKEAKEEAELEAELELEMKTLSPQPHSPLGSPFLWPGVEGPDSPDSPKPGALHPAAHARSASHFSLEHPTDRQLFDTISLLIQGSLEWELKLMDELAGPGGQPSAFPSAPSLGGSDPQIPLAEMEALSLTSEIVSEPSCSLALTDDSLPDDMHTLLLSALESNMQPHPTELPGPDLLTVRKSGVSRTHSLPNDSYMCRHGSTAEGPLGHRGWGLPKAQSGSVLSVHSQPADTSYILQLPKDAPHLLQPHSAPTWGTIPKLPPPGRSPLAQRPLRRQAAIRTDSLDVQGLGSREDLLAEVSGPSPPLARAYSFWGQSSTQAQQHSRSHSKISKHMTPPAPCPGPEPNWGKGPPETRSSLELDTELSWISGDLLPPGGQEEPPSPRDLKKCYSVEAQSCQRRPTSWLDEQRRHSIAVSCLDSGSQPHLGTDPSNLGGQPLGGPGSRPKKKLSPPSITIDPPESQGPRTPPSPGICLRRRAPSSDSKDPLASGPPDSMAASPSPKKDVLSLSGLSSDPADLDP
pIC50: −log10 of the molar value.
Param threshold (6) applies to pIC50; output y when value >= threshold, n when value < threshold.

Below are worked cases with known answers.
{"columns": ["Compound", "Assigned Category"],
 "data": [
  ["CC1CCCN(CC(=O)N2CCC(CNC(=O)c3cc(F)cc(C(F)(F)F)c3)CC2)C1 (centres unmarked) [Compound 268]", "n"],
  ["CCOc1cc(OCC)cc(C(=O)NCC2CCN(CC(=O)NC(C)(C)C)CC2)c1 [Compound 377]", "y"],
  ["O=C(CCC(F)(F)F)NCCN1CCC(CNC(=O)c2cccc(Cl)c2)CC1 [Compound 315]", "n"],
  ["O=C(NCC1CCN(C(=O)CNC2CCCC2)CC1)c1cc(F)cc(C(F)(F)F)c1 [Compound 273]", "y"],
  ["CS(=O)(=O)NC1(CN2CCC(CC(=O)Nc3cc(C(F)(F)F)cc(C(F)(F)F)c3)CC2)CCCC1 [Compound 160]", "y"]
]}

Given the entry O=C(NCC1CCN(CCNC(=O)C2(C(F)(F)F)CCCC2)CC1)c1cc(C(F)(F)F)cc(C(F)(F)F)c1 [Compound 340] , answer whether its pIC50 meets or surpasses 6.
y

====

# pIC50 values compiled below
target: human α1H T-type channels (Homo sapiens, UniProt O95180); construct: expressed in transfected cells; host or cells: HEK 293; assay: T-type calcium channel block, whole cell patch clamp in HEK cells (α1H); assay type: cell-based; details: HEK cells, patch clamp, mainly non-inactivated protocol; values above 10 μM shown as 10 μM; read-out: T-type Calcium Channel Block α1H IC50
Hey, just a heads up that pIC50 is the negative log base 10 of the concentration in molar.

Some solved entries appear below for comparison.
{"columns": ["Compound", "Endpoint", "Observed Measurement"],
 "data": [
  ["CN(C(=O)CN1CCC(CNC(=O)c2cc(F)cc(Cl)c2)CC1)C(C)(C)C(F)(F)F [Compound 579]", "pIC50", 7.30],
  ["COc1cc(Cl)cc(C(=O)NCC2CCN(CCNS(=O)(=O)C3CC3)CC2)c1 [Compound 322]", "pIC50", 5.67],
  ["CC(C)CS(=O)(=O)NCCN1CCC(CNC(=O)c2cc(C(F)(F)F)cc(C(F)(F)F)c2)CC1 [Compound 27]", "pIC50", 6.72],
  ["COc1cc(F)cc(C(=O)NCC2CCN(CC(=O)N(C)C(C)(C)C(F)(F)F)CC2)c1 [Compound 581]", "pIC50", 6.68],
  ["O=C(NCC1CCN(CC2(NS(=O)(=O)CCC(F)(F)F)CC2)CC1)c1cc(C(F)(F)F)cc(C(F)(F)F)c1 [Compound 360]", "pIC50", 6.60],
  ["Cc1cc(F)cc(C(=O)NCC2CCN(CC(=O)NC3(C)CCC3)CC2)c1 [Compound 476]", "pIC50", 6.85]
]}

Kindly consider the entry below.
Bench note, human α1H T-type channels (Homo sapiens, UniProt O95180): CC(C)(C#N)NC(=O)CN1CCC(CNC(=O)c2cc(C(F)(F)F)cc(C(F)(F)F)c2)CC1 [Compound 304] , pIC50 reads 6.43
